Readings of melting point for the listed compounds

Examples with their reported melting point follow.
| Compound | Experimental Endpoint | Observed Value |
| --- | --- | --- |
| O=C(O)CN1CCNCC1 | melting point | 130 to 132 °C |
| CCCCC1(N(C)C)CC=C(c2[nH]c3ccccc3c2CCN2C(=O)c3ccccc3C2=O)CC1 (centres undefined) | melting point | 125 to 130 °C |

Form field melting point, entry "Cc1cc(C)n(-c2nc(Nc3ccc(N4CCOCC4)cc3)c3ccccc3n2)n1" : 268 to 270 °C

Form field melting point, entry "CCc1nc2cc(C(N)=O)c(Cl)cc2n1-c1ccc(CCOC(=O)NS(=O)(=O)c2ccc(C)cc2)cc1" : 170 to 175 °C

====

Readings of melting point for the listed molecules

Examples with their reported melting point follow.
| Molecule | melting point |
| --- | --- |
| COc1cc(OCc2cccnc2)ccc1/C=C/c1cc(/C=C/c2cc3ccccc3[nH]2)n[nH]1 | 126 to 138 °C |
| CCOC(=O)C1=C(COCC2CO2)NC(C)=C(C(=O)OC)C1c1cccc(Cl)c1Cl (stereo unspecified) | 103 to 104 °C |

Form field melting point, entry "COC(=O)NCc1cc(C(C)=NO)ccc1Cl" : 124 to 127 °C

Form field melting point, entry CN1CCCCC1CNC(=O)Nc1cc(N2CC(c3ccccc3)CC2=O)ccn1 (stereo unspecified) : 144 to 146 °C

Form field melting point, entry "CSC(=C[N+](=O)[O-])NCCCCc1c[nH]cn1" : 157 to 158 °C

====

Experimental Endpoint: melting point

| Compound | melting point |
| --- | --- |
| COc1nc(NC(=O)NS(=O)(=O)Cc2ccccc2C(C)OC(C)=O)nc(OC)n1 (stereo not given) | 90 to 95 °C |
| c1ccc(OCCSCc2nnc(-c3ccc(OCCCCN4CCCCC4)cc3)o2)cc1 | 57 to 62 °C |

Form field melting point, entry "COc1cc(NC(=O)c2csc(NC(=O)NCc3ccccc3)n2)ccc1OCC(=O)O" : 210 °C

Form field melting point, entry "C(#Cc1ccncc1)c1ccccc1" : 51 to 53 °C

====

Readings of melting point for the listed compounds

Form field melting point, entry "CC(=O)Nn1c(=S)[nH]c2cc(C(F)(F)F)ccc21" : 294 to 295 °C

Form field melting point, entry "O=C(O)c1ccc(-c2ccc3cc(OCc4ccccc4)c(C45CC6CC(CC(C6)C4)C5)cc3c2)s1" : 170 to 171 °C

Form field melting point, entry "O=C1N(CCN2CCCC2)CCN1c1ccc(-c2nnc(CSCCOc3ccccc3)o2)cc1" : 125 to 129 °C

Form field melting point, entry "COC(=O)c1ccc(Cl)c([N+](=O)[O-])c1Cl" : 72 to 74 °C

Form field melting point, entry "Oc1ccccc1-c1cnc2cnc(-c3ccccc3O)nc2c1" : 239 to 240 °C

Form field melting point, entry OC1Cc2ccccc2C1O (stereo not given) : 98 to 100 °C

Form field melting point, entry "CC1(C)C=C(C#N)c2cc3nonc3cc2O1" : 136 to 138 °C

Form field melting point, entry "CN1CCN(c2ccc(Nc3ncc4ccc(-c5ccccc5OCC#N)n4n3)cc2)CC1" : 95 to 101 °C

Form field melting point, entry COP(=O)(O)CC(C)=CC(N)C(=O)O (stereo not given) : 149 to 150 °C

Form field melting point, entry "Nc1ncnc(OCc2ccccc2)c1[N+](=O)[O-]" : 149 to 150 °C

====

Readings of melting point for the listed compounds

Form field melting point, entry COc1ccc2c(c1OC)CC[C@H]1[C@H]2CCCN1CCc1ccccc1 (relative stereo) : 110 to 111 °C

Form field melting point, entry CCOC(=O)CC1(CC)OCCc2c1[nH]c1c(C)cccc21 (centres undefined) : 77 to 78 °C

Form field melting point, entry COc1cccc2c(CCCNC3COc4c(F)ccc(C(N)=O)c4C3)c[nH]c12 (centres undefined) : 196 to 198 °C

Form field melting point, entry "CC(=O)Nc1cc(O)c(C(=O)CCCCl)cc1Cl" : 103 to 106 °C

Form field melting point, entry "CN1C(=O)[C@H](NC(=O)CCCc2ccccc2)N=C(c2ccccc2)c2ccccc21" : 65 to 74 °C

Form field melting point, entry CC(C)C(OCc1ccccc1)[C@H]1[C@H]([N+](=O)[O-])[C@H](c2cccnc2)N[C@@H]1C(=O)NCCC(=O)O (some centres undefined) : 98 to 100 °C

Form field melting point, entry CC1(CCn2nc(-c3ccncc3)oc2=O)Cn2cc([N+](=O)[O-])nc2O1 (centres undefined) : 147 to 149 °C

Form field melting point, entry "O=[N+]([O-])c1oc2ccc(N3Cc4ccccc4C3)cc2c1-c1ccccc1" : 228 to 230 °C

Form field melting point, entry c1ccc2c(c1)NC(C1CCCCC1)c1cccc3c1N2CC3 (centres undefined) : 136 to 138 °C

====

Experimental Endpoint: melting point (°C)

P. CCOC(=O)C(=CNc1cc(OCc2ccccc2)c(OCc2ccccc2)cn1)C(=O)OCC
Q. O=C(Nc1cc(S(=O)(=O)NC(CO)CO)sc1Cl)c1cnn2c(C(F)(F)F)cc(-c3ccc(C(F)(F)F)cc3)nc12
Could you tell me which of these two has the smaller melting point figure? First: P Second: Q State your choice using its label.
P
(P: 117 °C, Q: 225 °C)

====

Readings of melting point for the listed compounds

Examples with their reported melting point follow.
| Compound | melting point |
| --- | --- |
| CCOC(=O)c1cc2c(cn1)[nH]c1cccc(C=Nc3ccccc3)c12 | 298 to 302 °C |
| COc1cc2cc3c(nc2cc1OC)CCc1ccc(N)cc1-3 | 185 °C |
| O=C(c1cc(Cl)cc(Cl)c1)N1CCc2cc(S(=O)(=O)N3CC(c4ccccc4)NC3=O)ccc21 (centres undefined) | 236 °C |

Form field melting point, entry "COc1ccc2c(c1)OCC(=Cc1cccnc1)C2=O" : 126 to 128 °C

Form field melting point, entry O=C(O)Cc1ccc(NC(=O)C(COc2ccccc2Cl)NS(=O)(=O)c2ccc(I)cc2)cc1 (racemic) : 198 to 200 °C

====

Experimental Endpoint: melting point (°C)

P. C=Cc1ccc(CP(=O)(C(=O)c2c(C)cc(C)cc2C)C(=O)c2c(C)cc(C)cc2C)cc1
Q. O=C(C(Cl)Cl)N1CCCCCCC1
Could you tell me which of these two has the smaller melting point figure? First: P Second: Q State your choice using its label.
Q
(Q: 83 °C, P: 208 °C)

====

Readings of melting point for the listed compounds

Examples with their reported melting point follow.
| Compound | Observed Value |
| --- | --- |
| Cn1ccnc1Sc1ccc(Nc2c(C#N)cnc3cc(/C=C/CCN4CCC(N5CCCC5)CC4)sc23)cc1Cl | 213 to 216 °C |
| CCOC(OCC)c1cc(NC(c2ccccc2)(c2ccccc2)c2ccccc2)c(F)c(CC2CC2)n1 | 120 to 121 °C |
| O=C(O)c1cccc(-c2cccc3sc(Cc4cccc(C(F)(F)F)c4)nc23)c1 | 152 to 153 °C |
| Cc1c(NC(=O)c2ccc(OC[C@@H]3CCCO3)cc2)ccc2cc(CNCC3CCOCC3)cnc12 | 92 to 94 °C |
| Nc1ccccc1S(=O)c1nc2cc(Cl)ccc2[nH]1 (stereo unspecified) | 176 to 178 °C |

Form field melting point, entry "CC(C)(Oc1ccc(C(=O)c2ccc(Cl)cc2)cc1)C(=O)Oc1ccc(I)cc1" : 149 to 150 °C

Form field melting point, entry "CNC(=O)[C@@H](C[C@H](O)[C@H](CC1CCCCC1)NC(=O)OC(C)(C)C)C1(O)CCCCC1" : 175 to 177 °C

Form field melting point, entry CSC(C#N)c1cccc(C(=O)c2ccccc2)c1N (stereo unspecified) : 107 to 108 °C

Form field melting point, entry CSc1ccc(C(=O)c2c(C)sc3c2CCC3C(=O)O)cc1 (stereo unspecified) : 131 to 133 °C

Form field melting point, entry "CCOC(=O)C(C#N)=CC=CN(C)C" : 134 to 135 °C

Form field melting point, entry "COc1cc(OCCN2CCOCC2)c(C=O)cc1-c1cccs1" : 130 to 131 °C

Form field melting point, entry "FC(F)(F)c1cccc(-c2cnnn2-c2cc(Cl)ccc2OCc2nnn[nH]2)c1" : 181 to 184 °C

====

Experimental Endpoint: melting point

| Molecule | Experimental Endpoint | Observed Value |
| --- | --- | --- |
| CCOC(=O)c1nc(-c2cccc3ccccc23)no1 | melting point | 68 to 70 °C |
| Cn1nc(-c2ccccc2)nc1-c1ccccc1CO | melting point | 122 °C |
| Cn1nc(-c2ccccc2)c(S(=O)(=O)c2ccccc2)c1-c1ccccc1 | melting point | 135 to 141 °C |
| C=C[C@H]1CC(C(=O)OC)=C[C@@H](OC(C)C)[C@@H]1NC(C)=O | melting point | 132 to 133 °C |
| CS(=O)(=O)NC(=O)NCCCCC1CCSS1 (stereo not given) | melting point | 125 to 127 °C |
| CC(C)n1nc(-c2sc(NC(=O)CN(C)CCN(C)C)nc2-c2ccccc2)ccc1=O | melting point | 155 to 157 °C |
| CCCCCCCCc1c(CCCCCCCC)c(-c2ccccc2)n(-c2ccc(C)cc2)c1-c1ccccc1 | melting point | 100 to 101 °C |
| O=S(=O)(CCO)CCCS(=O)(=O)CCO | melting point | 158 to 161 °C |
| CC(C)NCC(O)COc1ccc2c(c1)C1CCC2c2ccccc21 (stereo not given) | melting point | 126 to 127 °C |
| Clc1ccc2c(c1)CCc1cccnc1C2N1CCNCC1 (single isomer, unassigned; (+)) | melting point | 153 to 155 °C |

Form field melting point, entry "COC(=O)c1ccc(OC)c(NC(=N)c2ccc(F)cc2)c1" : 120 °C

Form field melting point, entry CCNC(=O)C1OC(n2cnc3c(NCc4ccc(O)cc4)ncnc32)C(O)C1O (stereo not given) : 180 °C

Form field melting point, entry O=C(c1cccs1)C(O)c1ccc(Cl)c(Cl)c1 (stereo not given) : 108 to 109 °C

Form field melting point, entry CC(C)C(=O)N1CC(OCc2ccccc2)C(OCc2ccccc2)C(OCc2ccccc2)C1COCc1ccccc1 (stereo not given) : 185 to 189 °C

Form field melting point, entry CC12CCC3c4ccc(C(=O)O)cc4CCC3C1CCC2C(=O)c1ccc(C(F)(F)F)cc1 (stereo not given) : 300 to 303 °C
